All values here come from patent US6359130B1.

# SYSTEM NAME: VEGF receptor (human flk-1, KDR, VEGFR2) kinase domain (Homo sapiens, UniProt P35968)
# Sequence (P35968 834-1162 limits assumed): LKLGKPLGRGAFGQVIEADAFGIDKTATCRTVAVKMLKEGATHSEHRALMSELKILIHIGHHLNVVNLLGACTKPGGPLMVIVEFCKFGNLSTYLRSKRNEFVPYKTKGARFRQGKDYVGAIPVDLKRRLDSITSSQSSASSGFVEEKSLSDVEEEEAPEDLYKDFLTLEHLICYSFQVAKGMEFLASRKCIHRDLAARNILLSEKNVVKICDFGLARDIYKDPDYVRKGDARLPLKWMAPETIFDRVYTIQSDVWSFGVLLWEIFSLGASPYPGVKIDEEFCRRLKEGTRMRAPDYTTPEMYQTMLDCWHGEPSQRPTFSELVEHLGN
OBSERVABLE: pIC50
# log scale: pIC50 equals minus log10 of the concentration in mol/L

[[record]]
compound = "CC12COCC(O1)n1c3ccccc3c3c4c(c5c(c31)C2c1ccccc1-5)C(=O)NC4 (stereo not shown) [II-7b]"
result_value = 6.59

[[record]]
compound = "Nc1cccc(-c2ccc3c(c2)c2c4c(c5c6c2n3C2CCC(O2)C6c2ccccc2-5)C(=O)NC4)c1 (stereo not shown)"
result_value = 6.50

[[record]]
compound = "CCOC(=O)C12CCC(O1)n1c3ccccc3c3c4c(c5c(c31)C2c1ccccc1-5)C(=O)NC4 (stereo not shown)"
result_value = 6.69

[[record]]
compound = "CC12COCC(O1)n1c3ccccc3c3c4c(c5c(c31)C2c1ccccc1-5)C(=O)NC4 (single isomer, unassigned) [II-7a]"
result_value = 7.06

[[record]]
compound = "CC12CCCC(O1)n1c3ccccc3c3c4c(c5c(c31)C2c1ccccc1-5)C(=O)NC4 (single isomer, unassigned)"
result_value = 7.77


Next:
What pIC50 appears in the records for this compound with VEGF receptor (human flk-1, KDR, VEGFR2) kinase domain (Homo sapiens, UniProt P35968)? O=C1NCc2c3c4c5c(c21)c1ccccc1n5C1CCC(O1)C4c1ccccc1-3 (stereo not shown) 7.59
